- Tested on: SF-268 CNS
- ASSAY_COMMENT: NCI-60 one-dose screen, 48 h (100 = growth as untreated, 0 = no growth, -100 = all killed)
- CONDITION_DETAILS: 10 µM unless noted
The panel holds about 83,000 compounds, 20% with a hit somewhere; the sample as a whole holds those more often.
For each entry below, report its growth value.
Response body: numeric value in %, unit text excluded.

Prompt: Look up growth of CC(C)(C)Nc1nc2c(OCCc3ccccc3)cccn2c1-c1ccccc1Cl and report it.
Completion: 22.9

Prompt: Name the recorded growth of the molecule listed here: Cc1cc(C(=O)Nc2sc3c(c2C(N)=O)CCC(=O)C3)ccc1OCCN1CCCCC1
Completion: 99.4

Prompt: Supply recorded growth for COc1cc(-c2nc3ccc(-c4nnc(SCC(=O)Nc5ccc(C(C)=O)cc5)o4)cc3[nH]2)cc(OC)c1OC here.
Completion: 111

Prompt: Consider the molecule Nc1ncc(-c2ccc3ncnc(N4CCc5cc(F)c(Cl)cc54)c3c2)cc1CO . State its measured growth.
Completion: 8.31

Prompt: Consider the molecule N=C1CC(=O)NN1C(=O)CSc1nc2sc3c(c2c(=O)n1-c1ccc(Cl)cc1)CCCC3 and give its recorded growth.
Completion: 99.7

Prompt: Indicate its recorded growth; the molecule in question is COc1cccc(COc2ccc(/C=C3/C(=O)Nc4cc(Cl)ccc43)cc2)c1
Completion: 99.5

Prompt: Supply growth value. Item: N#Cc1c(-c2ccc(Cl)cc2)nc(SCc2ccccc2)nc1N1CCNCC1
Completion: 74.2

Prompt: Give the measured growth for O=C1Nc2ccccc2Oc2ccc(S(=O)(=O)CC3CO3)cc21 (stereo not given)
Completion: 80.2

Prompt: Note down growth recorded for C[C@@H](Nc1c(C#N)cnc2ccc(-c3cnc(N)nc3)cc12)c1ccccc1
Completion: 16.5

Prompt: // fetch growth given entry C#Cc1nc(C2=C(C)/C(=N/OCc3ccccc3)CC2)cs1
Completion: 0.651

Prompt: For the molecule CN(C)S(=O)(=O)c1oc(-c2ccccc2)nc1C#N , give its measured growth value.
Completion: 116

Prompt: Check the records and state growth for Fc1ccc(-c2cc3nc(C(Cl)Cl)nc(-c4ccc(Cl)cc4)n3n2)cc1
Completion: 26.2

Prompt: Let me know recorded growth for COc1cc(/C=C/C(=O)c2cc(OC)c(OC)c(OC)c2)ccc1OCc1ccccc1 , thanks.
Completion: 43.3

Prompt: Return growth for the following molecule: O=C(NNc1nc2cc(F)ccc2n2c(CN3CC4(COC4)C3)ccc12)c1cnccn1
Completion: 22.8

Prompt: Respond only with growth recorded for CCOC(=O)c1sc(NCC(=O)Nc2cccc([N+](=O)[O-])c2)c(C(=O)OCC)c1C
Completion: -25

Prompt: For N[C@@H](Cc1cn(-c2c3ccccc3nc3ccccc23)nn1)C(=O)O , write its growth.
Completion: 101

Prompt: Hello, please tell me recorded growth for this one: C[C@@H]1CN(c2ccc3ncc(C#Cc4cncc(C(=O)Nc5ccc(CN6CCN(C)CC6)c(C(F)(F)F)c5)c4)n3n2)C[C@H](C)O1
Completion: -60.3

Prompt: Identify measured growth corresponding to C#Cc1nc(C2=C(C)C(OC(C)=O)/C(=N/OC(C)=O)C2)cs1 (stereo not given)
Completion: -42.6

Prompt: Item Clc1ccc(-c2cn3cc(Cc4ccc(Cl)c(Cl)c4)sc3n2)cc1 : provide growth
Completion: 86.2

Prompt: Answer with the recorded growth of O=C(Oc1ccc2ccc(=O)oc2c1)c1ccc(Cl)cc1 only.
Completion: 106
